Values from PubChem BioAssay (NCI)

Would you mind telling me the reported TGI of each entry?
tested on: UACC-62 melanoma; assay: NCI tumour cell line growth inhibition, 48 h
Answers are plain numbers, in µM.

{"columns": ["MOLECULE", "RECORDED_RESULT"],
 "data": [
  ["COc1ccccc1Cn1c2c(c3cc(O)ccc31)C(=O)c1ccccc1C2=O", 82.9]
]}

Query: Reported TGI for CCCCCCCCCCCCNC(=O)[C@H]1CSC(c2ccsc2)N1 (stereo not given in full) : what is it?
Reply: 1.82

====

Provide the recorded TGI for the entries that follow.
tested on: ACHN renal; test: NCI tumour cell line growth inhibition, 48 h
One number for each entry, in µM.

Solved cases below.
{"columns": ["LINE_NOTATION", "RECORDED_RESULT"],
 "data": [
  ["CC(C)c1ccc2c(c1)c(SC(C)(C)C)c(CC(C)(C)C(=O)O)n2Cc1ccc(Cl)cc1", 24.3],
  ["C[N+]1(CCCCN2c3ccccc3Sc3cc(N=[N+]=[N-])ccc32)CCN(C(=O)CCNC(=O)Cc2ccc(C(=O)c3ccccc3)cc2)CC1", 37.2],
  ["CN1CCN(CCCOc2ccc3ncnc(Nc4ccc(Oc5cccc(F)c5)c(Cl)c4)c3c2)CC1", 2.19]
]}

Query: # lookup: TGI of CC(C)NC(=O)OCc1c(COC(=O)NC(C)C)n(C)c2c1ccc1cc(Cl)c(Cl)cc12
Reply: 24

====

tested on: HL-60(TB) leukemia; assay: NCI tumour cell line growth inhibition, 48 h
PARAMETER_MEASURED: TGI

Examples with their reported TGI follow.
{"columns": ["MOLECULE", "TGI"],
 "data": [
  ["O=C1Cc2ccccc2CCc2ccccc21", "> 100 µM"],
  ["C[C@@H](CCO)OC1OC(COC(=O)C(C)(C)C)C(OC(=O)C(C)(C)C)C(OC(=O)C(C)(C)C)C1OC(=O)C(C)(C)C (stereo partly specified)", "62.5 µM"],
  ["O=C1OC(c2ccc(Cl)c3ccccc23)c2ccccc21 (stereo unspecified)", "> 100 µM"]
]}

Below is a list of molecules. For each, state its recorded TGI.
1. CCOP(=O)(COCCn1nc(Br)c(=O)[nH]c1=O)OCC
2. Cc1cc([C@H](C)Nc2nccc(N3C(=O)OC[C@@H]3[C@H](C)F)n2)ncc1-c1ccnc(C(F)(F)F)c1
3. CC(C)c1ccc2c(c1)c(SC(C)(C)C)c(CC(C)(C)C(=O)O)n2Cc1ccc(Cl)cc1

Reply:
> 100 µM
> 100 µM
30.3 µM

Provide reported TGI for each item, in the same order as listed.
1. COc1ccc(C(=C2C(=O)OC(=O)C2=C(C)C)c2ccc(OC)cc2)cc1
2. O=C1CCC(CCc2nc3ccccc3[nH]2)(c2ccccc2)C(=O)N1 (stereo unspecified)
3. Cc1nc2ccccc2n1Cc1ccc(NC(=S)Nc2ccccc2)cc1
4. CCOc1ccccc1NC(=O)CCC(=O)NN

Reply:
84.3 µM
> 100 µM
> 100 µM
> 100 µM

====

system: SK-MEL-28 melanoma; test: NCI tumour cell line growth inhibition, 48 h; in the data active means GI50 below about 0.43 µM; inactive means the rest
I would appreciate it if you answered using one of these outcomes: active, inactive

These solved cases illustrate the format of a correct answer.
{"columns": ["COMPOUND", "DISCRETE_LABEL"],
 "data": [
  ["Cc1cc(C(=O)Nc2cc(Nc3ncccc3-c3ncnc4nc[nH]c34)ccc2F)cc(C(C)(C)C#N)c1", "active"],
  ["CC(C)(C)OC(=O)n1c(Cl)c(C(=O)N=C=S)c2ccccc21", "inactive"],
  ["Cc1cc([C@H](C)Nc2nccc(N3C(=O)OC[C@@H]3[C@H](C)F)n2)ncc1-c1ccnc(C(F)(F)F)c1", "inactive"],
  ["C/C(=N\\O)[C@H]1CC[C@@]2(C)[C@@H]3CC[C@H]4C(C)(C)/C(=N/O)CC[C@@]45CC35CC[C@]12C (stereo not given in full)", "inactive"]
]}

Query: For O=C(Nc1nc2ccc(F)cc2s1)c1cccnc1Nc1ccc(Cl)cc1Cl , what call appears in the results of this test?
Reply: inactive

====

tested on: EKVX NSCLC; experiment: NCI tumour cell line growth inhibition, 48 h
PARAMETER_MEASURED: TGI

Below, each entry is followed by its recorded TGI result.
{"columns": ["MOLECULE", "TGI"],
 "data": [
  ["CC12O[Te]34OC1(C)C(C)(O3)C2(C)O4", "62.6 µM"],
  ["COC(=O)c1ccc2cc(O)ccc2c1", "> 100 µM"],
  ["CC[C@H](C)[C@H](NC(=O)N[C@@H](C)c1ccccc1)C(=O)N(C)[C@H](C[C@@H](OC(C)=O)c1nc(C(=O)N[C@@H](Cc2ccccc2)C[C@H](C)C(=O)OC)cs1)C(C)C", "> 100 µM"],
  ["CCCCOP1(=O)C=CC(Cl)=C(C)C1 (stereo not given)", "> 100 µM"]
]}

Provide each entry's TGI from the list below.
1. CC1=CC(O)CC(C)(C)C1/C=C/C(C)=C/C=C/C(C)=C/C=C/C=C(C)/C=C/C=C(C)/C=C/C1=C(C)CC(O)CC1(C)C (stereo not given)
2. CCc1nc2c([nH]1)C(=O)c1ccccc1C2=O
3. C/C(=N\O)[C@H]1CC[C@@]2(C)[C@@H]3CC[C@H]4C(C)(C)/C(=N/O)CC[C@@]45CC35CC[C@]12C (stereo not given in full)
4. COc1ccc(-c2nc(/C=N/Nc3cc(C)nc4ccc(Br)cc34)c(C)o2)cc1

Reply:
> 100 µM
> 100 µM
> 16.7 µM
3.44 µM

Each of the following entries comes with a recorded value; kindly state TGI for each.
1. CC(=O)Nc1ccc2c(c1)CN1C(=O)c3ccccc3C1=N2
2. CCOc1cccc(/C=N/NC(=O)Cc2ccc(Nc3ccnc(C(F)(F)F)c3)cc2)c1O

Reply:
> 100 µM
> 100 µM

====

tested on: SNB-19 CNS; test: NCI tumour cell line growth inhibition, 48 h
Can you tell me GI50 for the items I'm about to list?

Reference set (3 entries):
{"columns": ["COMPOUND", "TGT", "GI50"],
 "data": [
  ["CCOC(=O)/N=c1\\ssc(Cl)c1Cl", "SNB-19 CNS", "23.7 µM"],
  ["COc1ccc(-c2nn3ncccc3c2-c2ccnc(Nc3cccc(C(F)(F)F)c3)n2)cc1", "SNB-19 CNS", "12.5 µM"],
  ["CCCCCCCCCCCCCCCCCCNC(=O)[C@H]1CSC(c2ccc(F)c(OC)c2)N1 (stereo partly specified)", "SNB-19 CNS", "0.996 µM"]
]}

Batch request: GI50 per item, same order as input.
1. COc1cc(/C=C2\C(=O)Nc3ccc(Br)cc32)cc(OC)c1OC
2. Cc1ccc(S(=O)c2ccc([N+](=O)[O-])c3nonc23)cc1 (stereo unspecified)

Reply:
1: 29.8 µM; 2: 14.7 µM

====

system: NCI-H460 lung
Select the correct class. Options are active, inactive and nothing else.

Recorded results for 2 molecules are shown here.
{"columns": ["MOLECULE", "TGT", "DISCRETE_LABEL"],
 "data": [
  ["Cc1cc([C@H](C)Nc2nccc(N3C(=O)OC[C@@H]3[C@H](C)F)n2)ncc1-c1ccnc(C(F)(F)F)c1", "NCI-H460 lung", "inactive"],
  ["CC(=O)Nc1ccc2c(c1)CN1C(=O)c3ccccc3C1=N2", "NCI-H460 lung", "inactive"]
]}

Query: Per the assay record, what outcome was assigned to O=C(Nc1nc2ccc(F)cc2s1)c1cccnc1Nc1ccc(Cl)cc1Cl ?
Reply: inactive

Query: In this assay, the call recorded for CC[C@H](C)[C@H](NC(=O)N[C@@H](C)c1ccccc1)C(=O)N(C)[C@H](C[C@@H](OC(C)=O)c1nc(C(=O)N[C@@H](Cc2ccccc2)C[C@H](C)C(=O)OC)cs1)C(C)C was what?
Reply: inactive

Query: Per the assay record, what outcome was assigned to CCOc1cccc(/C=N/NC(=O)Cc2ccc(Nc3ccnc(C(F)(F)F)c3)cc2)c1O ?
Reply: inactive

Query: How did this test come out for C/C(=N\O)[C@H]1CC[C@@]2(C)[C@@H]3CC[C@H]4C(C)(C)/C(=N/O)CC[C@@]45CC35CC[C@]12C (some centres not stated) ?
Reply: inactive

Query: Per the assay record, what outcome was assigned to CC(=O)OC1Oc2cc(C)c(C)cc2-c2oc(=O)c(-c3ccccc3)cc21 (configuration not stated) ?
Reply: active

====

Kindly supply the reported TGI values for the records listed here.
test system: NCI-H23 lung; assay: NCI tumour cell line growth inhibition, 48 h
Give bare numbers, in µM.

Solved entries:
{"columns": ["COMPOUND", "TGI / µM"],
 "data": [
  ["C=C(C[N+](C)(C)C)N/N=C/c1oc(-c2ccc(OC)c(OC)c2)c(-c2ccc(OC)c(OC)c2)c1[N+](=O)[O-]", 44.7],
  ["CC(C)(C)C#CI1OC(=O)c2ccccc21", 15.3]
]}

// batch mode: one TGI value per listed entry
1. N#Cc1c(-c2ccc(Cl)cc2)csc1NC(=O)Nc1cccc(C(F)(F)F)c1
2. CC(C)NC(=O)OCc1c(COC(=O)NC(C)C)n(C)c2c1ccc1cc(Cl)c(Cl)cc12
3. CN1C=C(C(N)=O)C2CC(O)[C@@](NC(=O)CS(N)(=O)=O)(C(=O)O)C2C1 (stereo partly drawn)
4. C=C1C[C@@H]2CC[C@@]34CC5O[C@H]6C(O[C@H]7CC[C@H](CC(=O)O[C@@H]8[C@@H](C)[C@@H]9O[C@@H]%10C[C@]%11(C[C@@H]%12O[C@]%13(C[C@H](C)[C@@H]%14O[C@@H]%15CC(C(COC(C)=O)OC(C)=O)O[C@@H]%15C[C@@H]%14O%13)C[C@H](C)[C@@H]%12O%11)O[C@@H]%10C[C@@H]9O[C@H]8CC8O[C@@H](CC[C@@H]1O2)C[C@@H](C)C8(O)CO)O[C@@H]7[C@@H]6O3)[C@H]5O4 (stereo partly drawn)
5. COc1ccc(-c2nn(-c3cccc(Cl)c3)cc2/C=C2\C(=N)N(c3ccccc3)N=C2N)cc1

Reply:
[5.33, 31.1, 3.48, 0.997, 43.5]

Query: Reported TGI for CC(C)c1ccc2c(c1)c(SC(C)(C)C)c(CC(C)(C)C(=O)O)n2Cc1ccc(Cl)cc1 : what is it?
Reply: 28.1
